# System: Mono-Mac-6
# TEST METHOD NOTES: cell viability (% survival relative to DMSO control, bortezomib = 0%); higher = less cytotoxic
# COND: 1000 nM; 72 h

{"COMPOUND": "NCCCC(N)(C(=O)O)C(F)F (stereo not given)", "UNIT ABBREVIATION": "%", "cell viability": 98.5}
{"COMPOUND": "CCCc1cc(-c2nc(-c3ccc(C)cc3)cs2)ccn1", "UNIT ABBREVIATION": "%", "cell viability": 111}
{"COMPOUND": "O=C(O)Cn1nnc(-c2cc(N3CCC(Oc4cc(F)ccc4Br)CC3)no2)n1", "UNIT ABBREVIATION": "%", "cell viability": 94.6}
{"COMPOUND": "C[C@](N)(Cc1ccc(O)cc1)C(=O)O", "UNIT ABBREVIATION": "%", "cell viability": 92.9}
{"COMPOUND": "Oc1ccc(Nc2nc(-c3ccc(Cl)cc3)cs2)cc1", "UNIT ABBREVIATION": "%", "cell viability": 93.5}

Hey, just so you know, these numbers are from the supplement of paper PMC8671470.
